- TEST SUMMARY: gradient 5% acetonitrile 3 min, to 50% in 2 min, to 85% in 15 min, held 3 min, 100 µL/min
- TEST CONDITIONS: column: Zorbax Extend-C18 2.1 x 50 mm; eluents: water / acetonitrile, 0.1% formic acid
PARAMETER: RP-LC retention time (s)

For orientation, consider the following solved cases.
CCc1ccc(NC2CC(=O)N(c3ccc(OC)cc3OC)C2=O)cc1 (centres undefined); 887
Cc1cc2c(=O)n(CC(=O)Nc3ccc(F)c(F)c3)ccc2s1; 826
O=C(NCCn1c(=O)n(Cc2ccccc2)c2cccnc21)c1cccnc1; 650
Cc1ccc(-c2nnc(-c3ccc(Cl)c(S(=O)(=O)N4CCOCC4)c3)o2)cc1; 1030

(A) CCC(C)NC(=O)C1CCN(S(=O)(=O)c2cn(CC)cn2)CC1 (centres undefined)
(B) Cc1ccc(NC(=O)Cn2c(=O)n(-c3ccccc3)c(=O)c3c2cc(C)n3C)cc1Cl
# argmax over RP-LC retention time for candidates A and B Answer format: the label of the selected item. B

Cited source for all entries: the METLIN SMRT retention time set (Domingo-Almenara et al. 2019)
